Consider the following binders and their measured Kd readings.
Molecular target: T1, Recombinant human Dkk-1 (R&D Systems cat no. 1096-DK/CF), 10xHis tag at the C terminal (human, UniProt O94907 32-266)
T1 construct: the actual N-terminus of the purified protein is marked in bold italic after residue 30, but the mark is an image lost in the text; also called rhuDkk-1; hDkk-1
T1 sequence: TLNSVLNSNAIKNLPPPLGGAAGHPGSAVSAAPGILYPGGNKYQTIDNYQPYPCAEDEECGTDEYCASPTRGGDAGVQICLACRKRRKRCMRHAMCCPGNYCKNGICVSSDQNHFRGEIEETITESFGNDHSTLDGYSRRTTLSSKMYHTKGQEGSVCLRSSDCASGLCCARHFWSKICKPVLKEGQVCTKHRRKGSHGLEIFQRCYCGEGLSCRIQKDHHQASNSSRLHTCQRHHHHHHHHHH
Experiment: theoretical: koff / estimated kon 1e6 1/Ms (SPR screening 37C)
Kindly answer with a numeric value in nM, unit omitted.

-- ask Can you look up the measured Kd of L3.1B12 (Fab, V domains shown, tested as Fab (E. coli lysate, screening mode); human kappa CL and IgG2 CH1 not included here) VH: EVQLVESGGGLVQPGGSLRLSCAASGFTFSSYAISWVRQAPGKGLEWVASVSGWFGTYYPDSVKGRFTISRDNAKNSLYLQMNSLRAEDTAVYYCATSLENYAFDYWGQGTTVTVSS VL: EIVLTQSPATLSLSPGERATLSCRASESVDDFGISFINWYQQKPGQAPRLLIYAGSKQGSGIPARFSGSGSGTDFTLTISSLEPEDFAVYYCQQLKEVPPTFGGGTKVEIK for me?
-- reply 0.21

-- ask Can you look up the measured Kd of 24m4 (Fab, V domains shown, tested as Fab (E. coli lysate, screening mode); human kappa CL and IgG2 CH1 not included here) VH: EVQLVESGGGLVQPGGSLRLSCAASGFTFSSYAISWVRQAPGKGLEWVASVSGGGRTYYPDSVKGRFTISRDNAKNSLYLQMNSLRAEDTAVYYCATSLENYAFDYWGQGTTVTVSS VL: EIVLTQSPATLSLSPGERATLSCRASESVDDFGISFLNWYQQKPGQAPRLLIYAASKQGSGIPARFSGSGSGTDFTLTISSLEPEDFAVYYCQQSKEVPPTFGGGTKVEIK for me?
-- reply 11.8

-- ask Can you look up the measured Kd of 24m6 (Fab, V domains shown, tested as Fab (E. coli lysate, screening mode); human kappa CL and IgG2 CH1 not included here) VH: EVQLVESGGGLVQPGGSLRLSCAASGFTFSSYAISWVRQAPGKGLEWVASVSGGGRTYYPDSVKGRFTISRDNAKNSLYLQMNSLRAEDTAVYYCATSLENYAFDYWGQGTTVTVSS VL: EIVLTQSPATLSLSPGERATLSCRASESVDDFGISFMNWYQQKPGQAPRLLIYAGSKQGSGIPARFSGSGSGTDFTLTISSLEPEDFAVYYCQQSKEVPPTFGGGTKVEIK for me?
-- reply 9.14
